Target: GluA2(E) (Rattus norvegicus, UniProt P19491, Q607E)
Assay: whole-cell patch clamp in HEK-293 cells, -60 mV

{"columns": ["MOLECULE", "READOUT UNITS", "IC50"],
 "data": [
  ["CC12CC3CC(C)(C1)CC(N)(C3)C2 [memantine]", "µM", 25]
]}

====

Target: GluA2(Q) (Rattus norvegicus, UniProt P19491)
Sequence (P19491 22-883 isoform P19491-2): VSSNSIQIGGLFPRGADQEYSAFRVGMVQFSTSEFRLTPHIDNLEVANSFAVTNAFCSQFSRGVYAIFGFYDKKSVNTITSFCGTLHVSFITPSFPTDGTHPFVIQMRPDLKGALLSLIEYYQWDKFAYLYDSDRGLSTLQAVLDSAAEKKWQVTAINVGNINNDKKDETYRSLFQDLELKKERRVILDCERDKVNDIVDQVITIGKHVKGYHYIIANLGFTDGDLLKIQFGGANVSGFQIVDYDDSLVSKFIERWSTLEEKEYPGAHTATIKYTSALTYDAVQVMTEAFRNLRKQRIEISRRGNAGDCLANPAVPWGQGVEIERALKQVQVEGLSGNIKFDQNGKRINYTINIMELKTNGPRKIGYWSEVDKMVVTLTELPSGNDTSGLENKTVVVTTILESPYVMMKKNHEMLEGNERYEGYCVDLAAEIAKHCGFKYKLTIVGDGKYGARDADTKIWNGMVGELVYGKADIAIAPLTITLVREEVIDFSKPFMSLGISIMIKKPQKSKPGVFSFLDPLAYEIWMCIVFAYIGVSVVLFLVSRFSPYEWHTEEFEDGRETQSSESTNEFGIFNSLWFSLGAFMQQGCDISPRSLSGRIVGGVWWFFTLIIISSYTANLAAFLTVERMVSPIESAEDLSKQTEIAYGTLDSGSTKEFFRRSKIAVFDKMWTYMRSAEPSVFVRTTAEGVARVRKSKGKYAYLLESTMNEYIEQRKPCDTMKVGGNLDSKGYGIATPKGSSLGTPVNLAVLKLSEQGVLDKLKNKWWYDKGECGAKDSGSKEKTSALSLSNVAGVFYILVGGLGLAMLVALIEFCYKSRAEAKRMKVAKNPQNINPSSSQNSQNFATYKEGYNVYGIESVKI
Assay: cryo-EM structure with glutamate and CTZ
pIC50: −log10 of the molar value.
MEASURED ENDPOINT: pIC50

{"columns": ["COMPOUND", "TARGET ENTITY", "MEASURED ENDPOINT", "RECORDED MEASUREMENT"],
 "data": [
  ["CC12CC3CC(C)(C1)CC(N)(C3)C2 [memantine]", "GluA2(Q) (Rattus norvegicus, UniProt P19491)", "pIC50", 4.31]
]}
